FYI, the data here is from the supplement of paper PMC9732359.

assay: protein stability index of a GFP-peptide fusion (yeast GPS) (PSI 1-4); higher = more stable; sorted into four equal gates, so the index is relative within each strain; conditions: pdr5∆
outcomeMeasure: protein stability index
Please reply with the value in numeric form only.

Reported protein stability index for SYRNAFTNVLTKYSDVL [YJL039C/NUP192] : what is it?
1.72

Which protein stability index is reported for this sequence? DTFELIKTFLVDLTSSN [YDL116W/NUP84]
3.19

Need protein stability index, item EVSMNSIFAMGLCGAGT [RPN1]
1.61

// lookup protein stability index for SQTMAETYVASYVVPRL [ECM29]
1.82

Need protein stability index of RNSVKLLSKLLLKHPFK [YCS4] , thanks.
2.1

Value lookup for protein stability index; key = AKKRKTLILIQNPENLL [SIR3]
2.54

Please look up its protein stability index: YIQRRLVKALEDIMVHY [RPO21]
2.11

Field request: protein stability index | item: AQDFINAYASFLQRQGK [RPS19A]
3.07

What value of protein stability index has been reported for the following sequence? LSSDEKRELLKRYRLKE [RPB5]
3.27

Value lookup for protein stability index; key = KSESDELQMRSFLKEGD [RRP4]
2.71

# query: protein stability index of entry KKEENETISNVAKTAPN [SNF2]
3.03

Quick check: protein stability index of DFDESLKYLDDLKAQFQ [RPN9] ?
3.17

For SKKVTSGVPRLKEILNV [RPO21] , what is its reported protein stability index?
2.06

What value of protein stability index has been recorded for this entry: LFQVESAPKISSEIDRE [SIR4]
2.61

----------
assay: protein stability index of a GFP-peptide fusion (yeast GPS) (PSI 1-4); higher = more stable; sorted into four equal gates, so the index is relative within each strain; details: pdr5∆
Given measured protein stability index, output rule met if it is greater than or equal to 3 and rule not met if not.

protein stability index >= 3 for KLSDSKTSNIESVPIYS [BRR2] ?
rule not met

Does YDNEKTAELIKELKEKE [PUP2] have a reported protein stability index of at least 3?
rule met

# bool: protein stability index of YVDEQSKNELKKAFTSY [RPS16A] >= 3
rule met

Textbook exercise: given the entry EEVEDQINPTRETNDDI [SNF2] , state whether its protein stability index is greater than or equal to 3.
rule not met

API: above_or_equal(metric=protein stability index, cutoff=3) for item THRNKDGTGVRVIVAGT [FAS1]
rule not met

Quick check, protein stability index >= 3? YLNSRIIPTTLEEQQQL [YML103C/NUP188]
rule not met

Reported protein stability index at or above 3? SQSSNANICLTFLESIN [SIN4]
rule not met

Confirm if protein stability index reported for the sequence VIEQCYLKFIPLKRAIW [SRB8] is 3 or above.
rule not met

Hi, just wondering whether ITFLQTLYIGNTANGRP [ECM29] shows protein stability index of 3 or higher.
rule not met

Does protein stability index meet or surpass 3 for PEYLAMYGLTMEWPKDM [ITC1] ?
rule not met

Confirm if protein stability index reported for the sequence EDGPRPFKVFLDIGLQR [RPL5] is 3 or above.
rule met

In plain terms: is recorded protein stability index at least 3 for TVFFLIRVAETRGGASA [YJL039C/NUP192] ?
rule not met

Hi team, for QKKILSIRLKVPPTIAQ [RPL8A] , is the recorded protein stability index at or above 3?
rule not met

Decide: protein stability index of RNQRKGAGSIFTSHTRL [RPL2A] >= 3?
rule met

Identify whether the reported protein stability index of the following sequence is 3 or greater: KRDQYLKSASKETAPVI [RPL28]
rule not met

Could you tell me if the measured protein stability index of FDDIFQVSEVDPGRYNK [RPB8] reaches 3 or more?
rule not met

Quick check, protein stability index >= 3? RYNGGNDNIGANRSRFN [SMB1]
rule met

Textbook exercise: given the entry FVSRIPIMFQDFDDSTA [IRR1] , state whether its protein stability index is greater than or equal to 3.
rule not met

State whether the measured protein stability index reaches 3, counting equality as reaching it, for KNVRFRVLQLLAVIMDN [YCG1]
rule not met

----------
assay: protein stability index of a GFP-peptide fusion (yeast GPS) (PSI 1-4); higher = more stable; sorted into four equal gates, so the index is relative within each strain; settings: pdr5∆
Assignment: determine reported protein stability index for the given sequences.
Lab note: jot down the number only; don't add units.

Suppose we examine the sequence KRKTNIIMFVGLQGSGK [SRP54] ; what protein stability index value has been reported?
2.78

Which protein stability index value belongs to NEYVAKVSAREKSAYKF [FAS2] ?
3.16

Look up protein stability index: LKKKVVDPFTRKEWFDI [RPS1B]
3.18

Could you tell me which protein stability index is on file for TQTESKKEENETISNVA [SNF2] ?
3.1

Any idea what protein stability index was measured for EFENKFQNSYKPALKVS [YMR129W/POM152] ?
3.11

What measured protein stability index goes with RKDKDAKFRLILIESRI [RPS13] ?
1.82

# lookup: protein stability index of VNTTRRFQYSDDEPAEK [YMR129W/POM152]
3.17

Entry YDPIKRIDAFNALEHKY [SSN3] has what protein stability index?
2.85

Look up protein stability index: DIEVPDVNALKFNNTQR [SNF12]
3.29

Fill in the blank: the reported protein stability index of LTESQTETYISDLVNQG [RPN5] is ____.
3.38

Report protein stability index for HLLVQLQKNDVYAFKAK [REC8] please.
2.99

Fill blank: measured protein stability index of the sequence RSKGKQNRPYNHPELQG [RPC17] is ____.
2.32

Sample NEKSQAEQEKAKNIISN [LRP1] — what was its protein stability index?
2.83

Entry NQYKLVFYQVTPEDADE [RPL22B] has what protein stability index?
2.7

----------
experiment: protein stability index of a GFP-peptide fusion (yeast GPS) (PSI 1-4); higher = more stable; sorted into four equal gates, so the index is relative within each strain; conditions: san1∆
# protein stability index >= 3 gives Fulfilled, anything below gives Not fulfilled

Is reported protein stability index greater than or equal to 3 here: TEEKCKNFIESESVGAF [YJL039C/NUP192]
Fulfilled

Could you please find out whether LTEGGSILEEKIAVLNN [SMC1] has protein stability index that meets 3 or exceeds it?
Fulfilled

Does GNQQQQLQQQPQMQCAL [YGL172W/NUP49] have a reported protein stability index of at least 3?
Not fulfilled

Is protein stability index for EVGMKVQSGQIYINKSV [RET1] at or above 3?
Not fulfilled

Reported protein stability index at or above 3? SIDNDFSEEKAEEFDFN [YAR002W/NUP60]
Fulfilled

----------
So I've got a bunch of sequences here, and I need their protein stability index values.
experiment: protein stability index of a GFP-peptide fusion (yeast GPS) (PSI 1-4); higher = more stable; sorted into four equal gates, so the index is relative within each strain; settings: san1∆

Would you mind telling me what protein stability index value was observed for QLILSDVDPEFYLKYVD [RET1] ?
2.72

Would you mind telling me what protein stability index value was observed for MLLVDIIPSRMGEAQTG [REC8] ?
2.02

Which measured protein stability index value corresponds to EIRRFQKSTELLIRKLP [HHT1] ?
1.87

I am curious: what protein stability index value has been reported for DLSLLGYCDDIAAMVAQ [SIR2] ?
2.82

What protein stability index value was documented for this sequence, SFQKIPLSRINENENFG [YML103C/NUP188] ?
2.97

Quick one: protein stability index of DKETQLKKRAVSGVELR [POP7] ?
2.36

I would be grateful if you could share the reported protein stability index for NRLSRIHLYMLTFHTLK [YLR018C/POM34] .
1.54

Form field: reported protein stability index of KKLSINSAARNIQHLLY [PRE7]
2.81

Item under review: FGHIDLAKPVFHVGFIA [RPO21] . Reported protein stability index?
2.73

Sample INTHIETLAYNSLKETL [SNF2] — what was its protein stability index?
2.5

What value of measured protein stability index is listed for MGKGKPRGLNSARKLRV [RPS23A] ?
2.96

Any idea what protein stability index was measured for QSKIDLTKKKNEEINKK [SEM1] ?
2.87

Look up protein stability index: NFNSSAPIADDNHSGDA [DSN1]
2.45

Which value of protein stability index has been reported for TISEKEQDILDLIAEQV [SSN2] in the records?
3.05

Please give the measured protein stability index for this sequence: EGLIRLDNLTEDPNSAA [DIS3]
3.23

Quick one: protein stability index of DSFSGAKIYPGRGTLFV [RPL24A] ?
2.78

Look up protein stability index for this sequence: MPNIELYLKVIPMDFIR [SSN2]
1.95

Can you share its protein stability index? I mean this sequence: EPMKQLNATKISPSAPS [YAR002W/NUP60]
2.96

Entry under review: VLVYDDKLEKVTHDCYR [RPC34] . Reported protein stability index?
2.94

# get_value(readout='protein stability index', item= DIDVTIVSKEYEKNFEA [ESC2] )
3.24

Could you share which protein stability index value was measured for IAFDDLIENKIQNKKIQ [RPN8] ?
2.57

So what does the record say about protein stability index for LGIKKEKRIQYAKDILQ [RPB2] ?
1.64

Data request, read-out protein stability index, for LQEKISTELNNKQYELF [SWI1]
2.52

I have this sequence here, ISKTTLTLDPRYIWRSL [RPN3] , and I need its recorded protein stability index.
2.5

Requested read-out: protein stability index. Entry: PEENATEGPSDKKLNLN [SNF12]
3.27

What protein stability index value was documented for this sequence, EIVNMVPSHVPQVLINR [SIR2] ?
2.53

Query (sequence): IHLNELLTNDESAFENL [SNF12] ; field requested: protein stability index
2.88

For the sequence shown here, YNSRPRSVRIPWYNNPV [PRP8] , give the reported protein stability index.
1.73

Requested field: protein stability index. Item: MENNEPAMAMEDLKNFI [SRB8]
3.24

# lookup: protein stability index of PLLVPGMTPCTVSPDFV [FAS1]
1.98

Consider the sequence TLSKTTDSSALTYDRLE [PRE9] and give its measured protein stability index.
2.89

# input sequence: ASLNALKESIKNSTSSM [RPN1] ; wanted: its protein stability index
3.06

If you can, please state the reported protein stability index value of RTDATFIRVIGSELVQK [RPT1] .
3.04

Would you mind telling me what protein stability index value was observed for ALKNACNSIINKLGALK [RPB11] ?
2.95

Give the measured protein stability index of INKQRVPLSDNAIIEAN [RPL7A] .
2.51

Data request, read-out protein stability index, for SKKLDVTVEQLRSIYHQ [NSL1]
1.85

What does the data say about its protein stability index? Entry: RCIGDSDNVSFEIQGVP [YMR129W/POM152]
3.28

Item NIPFWKHVGFELLSMGN [SRP72] has what recorded protein stability index?
2.01

What does the data say about its protein stability index? Entry: FKLFNKYRPETAAEKKE [RPL8A]
2.5

// protein stability index lookup, key: KNGLGLNFSTTAPANTT [MED2]
2.15

Would you kindly share the measured protein stability index for EKDAKINKLMEKDFQVN [SIR4] ?
3.3

Please give the measured protein stability index for this sequence: LTGNQLPTPTPTEMEPD [SWI1]
2.51

Given LTVDNLSIAIVGKDTPF [PRE5] , state its recorded protein stability index.
2.62

Reported protein stability index for ENSANSTVASALDTNGT [SIR4] : what is it?
2.79

I am curious: what protein stability index value has been reported for TSHYQNYHPNASITPYK [RPN4] ?
2.94

# protein stability index lookup, item WSKESNYDCKVISIVGG [PRP28]
2.31

Which protein stability index is listed for LPQSEWKAPSSIVLDSE [DIS3] ?
3.14

Entry KTLNLFKQIKSADCELL [RPO31] has what protein stability index?
1.23

Which protein stability index reading was recorded for the sequence NVKYRAVVFKPFKGEVV [RPB7] ?
2.43

Fill blank: measured protein stability index of the sequence LDDWISIGYETELKKIT [IRR1] is ____.
2.33

Please give the measured protein stability index for this sequence: LLINTNFNKFFKIWHGE [PCI8]
1.57

Could you share which protein stability index value was measured for SSNPQSAYVKAFYQKGN [SMC1] ?
1.96

Data request, read-out protein stability index, for TLTDILEDELYHTNPGH [RPN4]
3.1

Given the sequence NAPTFNPKYDTSNASMN [YAR002W/NUP60] , what is its reported protein stability index?
2.9

Name the recorded protein stability index for SIIKAKLPLLNESLIPL [YML103C/NUP188] .
1.84

Which protein stability index reading was recorded for the sequence KNSSTSNTEPIPRSNRH [MED1] ?
2.91

Query: protein stability index; subject: INPESREIVMPAHTKYM [ITC1]
1.69

Would you kindly share the measured protein stability index for NVIRSLEQEYRLILLLN [RMP1] ?
1.29

Give its protein stability index value. Item: VAESFTDEADSSMTEAS [SNF2]
3.38

Fill in: protein stability index of ADSAVNRQTLMFTATMT [PRP28] is ___
2.58
